- tgt: DLG1_2, Q12959
- Sequence (Q12959 314-412): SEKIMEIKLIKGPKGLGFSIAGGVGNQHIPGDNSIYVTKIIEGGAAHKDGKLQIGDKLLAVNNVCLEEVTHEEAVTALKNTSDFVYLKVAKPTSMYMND
- test: holdup assay
- Design: key: below the threshold = too weak to quantify, mostly under pKd 3.1 to 4
- particulars: plain residues with an end cap or a label only (N-terminal biotin on a linker: ado-ado)
parameterMeasured: pKd

Below, each entry is followed by its recorded pKd result.
MQILSKPEFI [NPSR1, Q6W5P4] : below the threshold
EAVTVESTSL [SLC22A11, Q9NSA0] : below the threshold
DLLGGGSDSI [TNRC6B, Q9UPQ9] : below the threshold
SGDGKTSVWI [GJC1, P36383] : below the threshold
QRYPGNQTTC [CCL24, O00175] : below the threshold

## Input What value of pKd has been recorded for this entry: NTALVESEDL [PALLS, Q8WX93;Q8WX93-1]
## Output below the threshold

## Input Please give the result for RGKNRRQSIF [CDK18, Q07002] too.
## Output below the threshold
